Test system: NCI-H3122
assay.overview: Antiproliferative activity against human NCI-H3122 cells after 72 hrs by SRB assay
Format: functional, cell-based
condition.description: NCI-H3122, 72 h
pIC50: −log10 of the molar value.
Listed compounds paired with reported pIC50
attribute.measured: pIC50

[[record]]
compound = "CCNC(=O)c1noc(-c2cc(C(C)C)c(O)cc2O)c1-c1ccc(CNCC(=O)Nc2cccc(Nc3ncc(Cl)c(Nc4ccccc4S(=O)(=O)C(C)C)n3)c2)cc1"
attribute_measured = "pIC50"
measured_value = 6.85

[[record]]
compound = "COc1ccc(NC(=O)CNC(=O)CN2CCN(Cc3ccc4c(c3)CN(C(=O)c3cc(C(C)C)c(O)cc3O)C4)CC2)cc1Nc1ncc(Cl)c(Nc2ccccc2S(=O)(=O)C(C)C)n1"
attribute_measured = "pIC50"
measured_value = 6.76

[[record]]
compound = "CCNC(=O)c1noc(-c2cc(C(C)C)c(O)cc2O)c1-c1ccc(C(=O)NCC(=O)Nc2ccc(OC)c(Nc3ncc(Cl)c(Nc4ccccc4S(=O)(=O)C(C)C)n3)c2)cc1"
attribute_measured = "pIC50"
measured_value = 6.80

[[record]]
compound = "COc1ccc(NC(=O)CNC(=O)c2noc(-c3cc(C(C)C)c(O)cc3O)c2-c2ccc(CN3CCOCC3)cc2)cc1Nc1ncc(Cl)c(Nc2ccccc2S(=O)(=O)C(C)C)n1"
attribute_measured = "pIC50"
measured_value = 6.23

[[record]]
compound = "COc1ccc(NC(=O)CN2CCN(Cc3ccc4c(c3)CN(C(=O)c3cc(C(C)C)c(O)cc3O)C4)CC2)cc1Nc1ncc(Cl)c(Nc2ccccc2S(=O)(=O)C(C)C)n1"
attribute_measured = "pIC50"
measured_value = 7.89

[[record]]
compound = "CC(C)c1cc(-c2onc(C(=O)NCC(=O)Nc3cccc(Nc4ncc(Cl)c(Nc5ccccc5S(=O)(=O)C(C)C)n4)c3)c2-c2ccc(CN3CCOCC3)cc2)c(O)cc1O"
attribute_measured = "pIC50"
measured_value = 6.35

[[record]]
compound = "CC(C)c1cc(C(=O)N2Cc3ccc(CN4CCN(C)CC4)cc3C2)c(O)cc1O [ONALESPIB]"
attribute_measured = "pIC50"
measured_value = 7.28


###

tested.on: ALK tyrosine kinase receptor (Homo sapiens, UniProt Q9UM73, G1202R)
Sequence (Q9UM73 19-1620 G1202R limits assumed): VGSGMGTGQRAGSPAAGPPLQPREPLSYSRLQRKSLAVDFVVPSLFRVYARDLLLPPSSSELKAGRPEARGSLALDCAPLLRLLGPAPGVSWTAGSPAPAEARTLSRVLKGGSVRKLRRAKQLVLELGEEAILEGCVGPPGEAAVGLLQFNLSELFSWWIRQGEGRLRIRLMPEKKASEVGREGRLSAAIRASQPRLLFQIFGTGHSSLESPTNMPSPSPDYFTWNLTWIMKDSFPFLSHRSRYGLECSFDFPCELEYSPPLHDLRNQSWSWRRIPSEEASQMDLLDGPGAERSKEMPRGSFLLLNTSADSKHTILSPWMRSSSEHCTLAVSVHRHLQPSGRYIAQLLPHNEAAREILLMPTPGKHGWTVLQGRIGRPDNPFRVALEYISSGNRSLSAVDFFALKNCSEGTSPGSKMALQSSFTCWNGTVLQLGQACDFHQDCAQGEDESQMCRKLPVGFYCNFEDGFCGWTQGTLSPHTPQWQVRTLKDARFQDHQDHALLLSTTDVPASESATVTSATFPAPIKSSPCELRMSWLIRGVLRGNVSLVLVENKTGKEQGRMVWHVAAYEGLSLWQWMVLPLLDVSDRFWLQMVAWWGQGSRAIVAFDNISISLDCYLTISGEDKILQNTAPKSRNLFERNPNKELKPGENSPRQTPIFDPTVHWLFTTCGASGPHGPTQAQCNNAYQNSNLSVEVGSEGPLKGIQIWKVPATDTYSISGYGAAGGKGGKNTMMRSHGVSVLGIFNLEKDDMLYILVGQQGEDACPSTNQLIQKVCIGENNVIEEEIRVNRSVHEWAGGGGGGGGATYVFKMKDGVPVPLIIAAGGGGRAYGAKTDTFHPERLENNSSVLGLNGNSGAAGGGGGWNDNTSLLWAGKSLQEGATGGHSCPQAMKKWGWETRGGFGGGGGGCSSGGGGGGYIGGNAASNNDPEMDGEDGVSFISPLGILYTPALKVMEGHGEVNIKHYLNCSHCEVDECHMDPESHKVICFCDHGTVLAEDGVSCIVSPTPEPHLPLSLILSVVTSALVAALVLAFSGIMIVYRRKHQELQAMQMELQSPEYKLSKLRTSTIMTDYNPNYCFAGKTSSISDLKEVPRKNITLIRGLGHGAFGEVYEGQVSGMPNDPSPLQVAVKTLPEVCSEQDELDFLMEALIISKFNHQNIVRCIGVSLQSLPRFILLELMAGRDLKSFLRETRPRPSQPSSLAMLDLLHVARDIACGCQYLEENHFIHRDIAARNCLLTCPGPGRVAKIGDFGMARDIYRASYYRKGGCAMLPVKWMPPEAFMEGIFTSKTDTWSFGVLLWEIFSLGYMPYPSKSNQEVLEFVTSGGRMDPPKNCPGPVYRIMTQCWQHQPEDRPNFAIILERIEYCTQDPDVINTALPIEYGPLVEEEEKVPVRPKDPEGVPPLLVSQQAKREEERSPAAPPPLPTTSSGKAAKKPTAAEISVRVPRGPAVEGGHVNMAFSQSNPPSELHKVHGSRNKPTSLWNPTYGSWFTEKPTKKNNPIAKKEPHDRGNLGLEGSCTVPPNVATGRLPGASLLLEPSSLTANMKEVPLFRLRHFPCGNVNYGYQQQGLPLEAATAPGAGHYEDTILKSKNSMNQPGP
assay.overview: Inhibition of ALK G1202R mutant (unknown origin) using poly (Glu,Tyr)4:1 as substrate after 60 mins by ELISA
attribute.measured: IC50 (nM)

[[record]]
chemical_string = "CCNC(=O)c1noc(-c2cc(C(C)C)c(O)cc2O)c1-c1ccc(CN2CCN(CC(=O)NCC(=O)Nc3ccc(OC)c(Nc4ncc(Cl)c(Nc5ccccc5S(=O)(=O)C(C)C)n4)c3)CC2)cc1"
attribute_measured = "IC50"
measured_value = 36.4

[[record]]
chemical_string = "CCNC(=O)c1noc(-c2cc(C(C)C)c(O)cc2O)c1-c1ccc(CN2CCN(CC(=O)Nc3ccc(OC)c(Nc4ncc(Cl)c(Nc5ccccc5S(=O)(=O)C(C)C)n4)c3)CC2)cc1"
attribute_measured = "IC50"
measured_value = 85.5


###

Entries annotated with measured log10(IC50)
tested.on: Heat shock protein HSP 90-alpha (Homo sapiens, UniProt P07900)
assay.overview: Inhibition of FITC-labeled geldanamycin binding to recombinant HSP90alpha (unknown origin) after 1 hr by fluorescence polarization assay
attribute.measured: log10(IC50) (log10 of the value in nM)

[[record]]
molecule = "CCNC(=O)c1noc(-c2cc(C(C)C)c(O)cc2O)c1-c1ccc(C(=O)N2CCN(CC(=O)Nc3cccc(Nc4ncc(Cl)c(Nc5ccccc5S(=O)(=O)C(C)C)n4)c3)CC2)cc1"
measured_value = 2.09

[[record]]
molecule = "CCNC(=O)c1noc(-c2cc(C(C)C)c(O)cc2O)c1-c1ccc(CN2CCN(CC(=O)Nc3ccc(OC)c(Nc4ncc(Cl)c(Nc5ccccc5S(=O)(=O)C(C)C)n4)c3)CC2)cc1"
measured_value = 2.00

[[record]]
molecule = "CCNC(=O)c1noc(-c2cc(C(C)C)c(O)cc2O)c1-c1ccc(CN2CCN(CC(=O)NCC(=O)Nc3ccc(OC)c(Nc4ncc(Cl)c(Nc5ccccc5S(=O)(=O)C(C)C)n4)c3)CC2)cc1"
measured_value = 1.93

[[record]]
molecule = "CC(C)c1cc(C(=O)N2Cc3ccc(CN4CCN(C)CC4)cc3C2)c(O)cc1O [ONALESPIB]"
measured_value = 1.13

[[record]]
molecule = "COc1ccc(NC(=O)CNC(=O)CN2CCN(Cc3ccc4c(c3)CN(C(=O)c3cc(C(C)C)c(O)cc3O)C4)CC2)cc1Nc1ncc(Cl)c(Nc2ccccc2S(=O)(=O)C(C)C)n1"
measured_value = 1.67

[[record]]
molecule = "CCNC(=O)c1noc(-c2cc(C(C)C)c(O)cc2O)c1-c1ccc(CNCC(=O)Nc2ccc(OC)c(Nc3ncc(Cl)c(Nc4ccccc4S(=O)(=O)C(C)C)n3)c2)cc1"
measured_value = 2.41

[[record]]
molecule = "CCNC(=O)c1noc(-c2cc(C(C)C)c(O)cc2O)c1-c1ccc(CNCC(=O)Nc2cccc(Nc3ncc(Cl)c(Nc4ccccc4S(=O)(=O)C(C)C)n3)c2)cc1"
measured_value = 2.57

[[record]]
molecule = "COc1ccc(NC(=O)CN2CCN(Cc3ccc4c(c3)CN(C(=O)c3cc(C(C)C)c(O)cc3O)C4)CC2)cc1Nc1ncc(Cl)c(Nc2ccccc2S(=O)(=O)C(C)C)n1"
measured_value = 1.60

